Each recorded value in this set is attributed to paper PMC11823630.

- Test system: P. aeruginosa PAOΔmexR
- measurement protocol: MIC, CLSI broth microdilution in BD Phoenix AST Broth
- Assay type: cell-based, Pseudomonas aeruginosa
- test conditions: strain PAOΔmexR; antibiotic with RW01 at 100 mg/L
Below is a list of entries, each paired with its recorded FICI value.
// no unit string in output, number only

Worked set:
[[record]]
smiles_structure = "C[C@H]1c2cccc(O)c2C(=O)C2=C(O)[C@]3(O)C(=O)C(C(N)=O)=C(O)[C@@H](N(C)C)[C@@H]3[C@@H](O)[C@@H]21"
experimental_result = 0.598

[[record]]
smiles_structure = "CN(C)[C@@H]1C(O)=C(C(N)=O)C(=O)[C@@]2(O)C(O)=C3C(=O)c4c(O)cccc4[C@@](C)(O)[C@H]3C[C@@H]12"
experimental_result = 0.348

[[record]]
smiles_structure = "CN(C)c1cc(NC(=O)CNC(C)(C)C)c(O)c2c1C[C@H]1C[C@H]3[C@H](N(C)C)C(O)=C(C(N)=O)C(=O)[C@@]3(O)C(O)=C1C2=O"
experimental_result = 0.223


Q: Find FICI for CN(C)c1ccc(O)c2c1C[C@H]1C[C@H]3[C@H](N(C)C)C(O)=C(C(N)=O)C(=O)[C@@]3(O)C(O)=C1C2=O on P. aeruginosa PAOΔmexR and write it down.
Ans: 0.223

* * *

- Tested on: PAO1 mutant MIN2_RW01_3, parS(V152A)
- measurement protocol: MIC, Sensititre custom plate
- Format: cell-based
- test conditions: Pseudomonas aeruginosa, PAO1, read-out: MIC, Sensititre
measured endpoint: log10 of MIC (log10 of the value in µg/mL)
Plainly stated, the numbers are log10 of MIC given in µg/mL.

Q: Find log10 of MIC for C[C@@H](O)[C@H]1C(=O)N2C(C(=O)O)=C(SCCN=CN)C[C@H]12 [Imipenem, imipenem] on PAO1 mutant MIN2_RW01_3, parS(V152A) and write it down.
Ans: 0.90

Q: Find log10 of MIC for CO/N=C(\C(=O)N[C@@H]1C(=O)N2C(C(=O)[O-])=C(C[N+]3(C)CCCC3)CS[C@H]12)c1csc(N)n1 [Cefepime, cefepime] on PAO1 mutant MIN2_RW01_3, parS(V152A) and write it down.
Ans: 0.60

Q: Find log10 of MIC for CC(C)(O/N=C(\C(=O)N[C@@H]1C(=O)N2C(C(=O)[O-])=C(C[n+]3ccccc3)CS[C@H]12)c1csc(N)n1)C(=O)O [Ceftazidime, ceftazidime] on PAO1 mutant MIN2_RW01_3, parS(V152A) and write it down.
Ans: 0.30

Q: Find log10 of MIC for O=C(O)c1cn(C2CC2)c2cc(N3CCNCC3)c(F)cc2c1=O [CIP, ciprofloxacin] on PAO1 mutant MIN2_RW01_3, parS(V152A) and write it down.
Ans: -0.30

* * *

- Test system: P. aeruginosa PAOUW∆oprF
- measurement protocol: MIC, CLSI broth microdilution in BD Phoenix AST Broth
- Assay type: cell-based, Pseudomonas aeruginosa
- test conditions: Pseudomonas aeruginosa, strain PAOUWΔoprF; agent alone; 37°C, 18–22 h; three biological replicates
Below is a list of entries, each paired with its recorded MIC value.
Field format: number, assumed mg/L, no unit text.

Worked set:
[[record]]
smiles_structure = "O=C(N[C@H](CO)[C@H](O)c1ccc([N+](=O)[O-])cc1)C(Cl)Cl"
units_symbol = "mg/L"
experimental_result = 32

[[record]]
smiles_structure = "CN(C)c1ccc(O)c2c1C[C@H]1C[C@H]3[C@H](N(C)C)C(O)=C(C(N)=O)C(=O)[C@@]3(O)C(O)=C1C2=O"
units_symbol = "mg/L"
experimental_result = 8

[[record]]
smiles_structure = "C[C@@H](O)[C@H]1C(=O)N2C(C(=O)O)=C(S[C@@H]3CN[C@H](C(=O)N(C)C)C3)[C@H](C)[C@H]12"
units_symbol = "mg/L"
experimental_result = 2


Q: Indicate the recorded MIC value for this compound: CCN[C@@H]1C[C@H](N)[C@@H](O[C@H]2OC(CN)=CC[C@H]2N)[C@H](O)[C@H]1O[C@H]1OC[C@](C)(O)[C@H](NC)[C@H]1O
Ans: 8

Q: Indicate the recorded MIC value for this compound: C[C@@H](O)[C@H]1C(=O)N2C(C(=O)O)=C(SCCN=CN)C[C@H]12
Ans: 2

Q: Indicate the recorded MIC value for this compound: CCn1cc(C(=O)O)c(=O)c2cc(F)c(N3CCNCC3)cc21
Ans: 1

* * *

- Tested on: P. aeruginosa PAOUW
- measurement protocol: MIC, CLSI broth microdilution in BD Phoenix AST Broth
- Format: cell-based, Pseudomonas aeruginosa
- test conditions: Pseudomonas aeruginosa, strain PAOUW; agent alone; 37°C, 18–22 h; three biological replicates; read-out: MIC
Below is a list of entries, each paired with its recorded MIC value.

Worked set:
[[record]]
smiles_structure = "CCN[C@@H]1C[C@H](N)[C@@H](O[C@H]2OC(CN)=CC[C@H]2N)[C@H](O)[C@H]1O[C@H]1OC[C@](C)(O)[C@H](NC)[C@H]1O"
experimental_result = "2 µg/mL"

[[record]]
smiles_structure = "CCn1cc(C(=O)O)c(=O)c2cc(F)c(N3CCNCC3)cc21"
experimental_result = "4 µg/mL"

[[record]]
smiles_structure = "C[C@@H](O)[C@H]1C(=O)N2C(C(=O)O)=C(SCCN=CN)C[C@H]12"
experimental_result = "8 µg/mL"


Q: Indicate the recorded MIC value for this compound: CN(C)c1cc(NC(=O)CNC(C)(C)C)c(O)c2c1C[C@H]1C[C@H]3[C@H](N(C)C)C(O)=C(C(N)=O)C(=O)[C@@]3(O)C(O)=C1C2=O
Ans: 8 µg/mL

Q: Indicate the recorded MIC value for this compound: C[C@H]1COc2c(N3CCN(C)CC3)c(F)cc3c(=O)c(C(=O)O)cn1c23
Ans: 4 µg/mL

Q: Indicate the recorded MIC value for this compound: C[C@H]1c2cccc(O)c2C(=O)C2=C(O)[C@]3(O)C(=O)C(C(N)=O)=C(O)[C@@H](N(C)C)[C@@H]3[C@@H](O)[C@@H]21
Ans: 32 µg/mL

* * *

Below is a list of entries, each paired with its recorded MIC value.
- Tested on: PAO1 mutant MIN2_RW01_2, pmrB(M292T)
- measurement protocol: MIC, Sensititre custom plate
- Assay type: cell-based
- test conditions: Pseudomonas aeruginosa, PAO1, read-out: MIC, Sensititre
Field format: number, assumed mg/L, no unit text.

[[record]]
compound = "C[C@H]1[C@H](NC(=O)/C(=N\\OC(C)(C)C(=O)O)c2csc(N)n2)C(=O)N1S(=O)(=O)O"
experimental_result = 4


Q: Indicate the recorded MIC value for this compound: NCC[C@H](O)C(=O)N[C@@H]1C[C@H](N)[C@@H](O[C@H]2O[C@H](CN)[C@@H](O)[C@H](O)[C@H]2O)[C@H](O)[C@H]1O[C@H]1O[C@H](CO)[C@@H](O)[C@H](N)[C@H]1O
Ans: 4

Q: Indicate the recorded MIC value for this compound: CC(C)(O/N=C(\C(=O)N[C@@H]1C(=O)N2C(C(=O)[O-])=C(C[n+]3ccccc3)CS[C@H]12)c1csc(N)n1)C(=O)O
Ans: 2

Q: Indicate the recorded MIC value for this compound: CO/N=C(\C(=O)N[C@@H]1C(=O)N2C(C(=O)[O-])=C(C[N+]3(C)CCCC3)CS[C@H]12)c1csc(N)n1 [Cefepime, cefepime]
Ans: 4

Q: Indicate the recorded MIC value for this compound: C[C@@H](O)[C@H]1C(=O)N2C(C(=O)O)=C(S[C@@H]3CN[C@H](C(=O)N(C)C)C3)[C@H](C)[C@H]12
Ans: 1

Q: Indicate the recorded MIC value for this compound: NC[C@H]1O[C@H](O[C@H]2[C@H](O)[C@@H](O[C@H]3O[C@H](CO)[C@@H](O)[C@H](N)[C@H]3O)[C@H](N)C[C@@H]2N)[C@H](N)C[C@@H]1O
Ans: 0.5

Q: Indicate the recorded MIC value for this compound: C[C@@H](O)[C@H]1C(=O)N2C(C(=O)O)=C(SCCN=CN)C[C@H]12
Ans: 2

Q: Indicate the recorded MIC value for this compound: CC1(C)S[C@@H]2[C@H](NC(=O)[C@H](C(=O)O)c3ccsc3)C(=O)N2[C@H]1C(=O)O
Ans: 32

* * *

- Test system: PAO1 mutant MIN4_RW01_2, pmrB(F124S)
- measurement protocol: microbe, parasite or virus in culture
- Format: cell-based
- test conditions: Pseudomonas aeruginosa, PAO1, read-out: MIC, Sensititre
Below is a list of entries, each paired with its recorded MIC value.
Field format: number, assumed µg/mL, no unit text.

[[record]]
compound = "CC1(C)S[C@@H]2[C@H](NC(=O)[C@H](C(=O)O)c3ccsc3)C(=O)N2[C@H]1C(=O)O [TIC, ticarcillin]"
experimental_result = 16

[[record]]
compound = "C[C@@H](O)[C@H]1C(=O)N2C(C(=O)O)=C(SCCN=CN)C[C@H]12 [Imipenem, imipenem]"
experimental_result = 2

[[record]]
compound = "NCC[C@H](O)C(=O)N[C@@H]1C[C@H](N)[C@@H](O[C@H]2O[C@H](CN)[C@@H](O)[C@H](O)[C@H]2O)[C@H](O)[C@H]1O[C@H]1O[C@H](CO)[C@@H](O)[C@H](N)[C@H]1O [AMI, amikacin]"
experimental_result = 4


We next turn to a different compound, shown below.
Q: Indicate the recorded MIC value for this compound: NC[C@H]1O[C@H](O[C@H]2[C@H](O)[C@@H](O[C@H]3O[C@H](CO)[C@@H](O)[C@H](N)[C@H]3O)[C@H](N)C[C@@H]2N)[C@H](N)C[C@@H]1O [TOB, tobramycin]
Ans: 0.5
